B1: glmS ribozyme (parent)
chain: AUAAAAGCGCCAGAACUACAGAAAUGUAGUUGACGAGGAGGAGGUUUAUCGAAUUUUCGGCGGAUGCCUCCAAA

Variants of: B1
MEASUREMENT DESCRIPTION: self-cleavage kobs at 2500 uM GlcN6P; higher = faster cleavage; RNA array
ASSAY SETUP: with glucosamine-6-phosphate
This sample holds only a part of the variants without activity.
EXPERIMENTAL ENDPOINT: self-cleavage kobs at 2500 uM GlcN6P (s⁻¹)
Form entry: value (s⁻¹) — number only.

VARIANT CODE: C11U U45G U54A
DISPLAY UNIT: s⁻¹
self-cleavage kobs at 2500 uM GlcN6P: 0.000119
--
VARIANT CODE: U65G C67U
DISPLAY UNIT: s⁻¹
self-cleavage kobs at 2500 uM GlcN6P: 0.00101
--
VARIANT CODE: C16U G37A U54C
DISPLAY UNIT: s⁻¹
self-cleavage kobs at 2500 uM GlcN6P: 0.000599
--
VARIANT CODE: U45C U56C
DISPLAY UNIT: s⁻¹
self-cleavage kobs at 2500 uM GlcN6P: 0.000149
--
VARIANT CODE: C16G U30A U65G
DISPLAY UNIT: s⁻¹
self-cleavage kobs at 2500 uM GlcN6P: 5.44e-05

Lookup: Quote self-cleavage kobs at 2500 uM GlcN6P reported for G41A C70G please.
Found: 0.000332

Lookup: // Input: U31G A48U U55G A64G . Output its self-cleavage kobs at 2500 uM GlcN6P only.
Found: 0.000437

Lookup: Identify measured self-cleavage kobs at 2500 uM GlcN6P corresponding to A15U U56G C70U
Found: 0.000554

Lookup: Return reported self-cleavage kobs at 2500 uM GlcN6P. Input variant: U69A C70A
Found: 4.37e-05

Lookup: Return value of self-cleavage kobs at 2500 uM GlcN6P for input C11U A39C , no commentary.
Found: 0.000299

Lookup: Please supply the value of reported self-cleavage kobs at 2500 uM GlcN6P for the item U46C U47A U69A
Found: 0.000198

Lookup: Supply reported self-cleavage kobs at 2500 uM GlcN6P belonging to this variant: G32C U54C
Found: 1.41e-05

Lookup: Quick one: give measured self-cleavage kobs at 2500 uM GlcN6P for U30C A42G
Found: 0.000368

Lookup: Name the recorded self-cleavage kobs at 2500 uM GlcN6P of the variant listed here: U57A C68U
Found: 7.94e-05

Lookup: Query self-cleavage kobs at 2500 uM GlcN6P for G35A U47A C50G U54G
Found: 0.000152

Lookup: Read off the recorded self-cleavage kobs at 2500 uM GlcN6P for C50G A52C U69C C70A
Found: 0.000257

Lookup: Give the measured self-cleavage kobs at 2500 uM GlcN6P for A33C U46A
Found: 3.48e-05

Lookup: Provide measured self-cleavage kobs at 2500 uM GlcN6P value, entry: A14C U56A
Found: 0.00196

Lookup: Please report self-cleavage kobs at 2500 uM GlcN6P for the following variant: U30C C58A
Found: 2.92e-05
